- System: methicillin resistant S. aureus (ATCC 33591)
- Method: MIC, serial broth dilution
- Assay type: cell-based, Staphylococcus aureus
- Settings: MHB, 18 h, 37° C.
Rule: MIC MRSA (ATCC 33591) below 4 µg/mL gives 1. Equal to or above 4 µg/mL gives -1.

Molecule: NCCCN(CCCCN(CCCNC(=O)Cc1ccc(C(F)(F)F)cc1)C(=O)C(N)Cc1c[nH]c2ccccc12)C(=O)C(N)Cc1c[nH]c2ccccc12 (stereo not drawn) [2c]
Group: -1
//
Molecule: NCCCN(CCCCN(CCCN)C(=O)C(N)Cc1c[nH]c2ccccc12)C(=O)C(N)Cc1c[nH]c2ccccc12 (stereo not drawn) [2a]
Group: -1
//
Molecule: CCCCCCCCCC(=O)NCCCN(CCCCN(CCCN)C(=O)C(N)Cc1c[nH]c2ccccc12)C(=O)C(N)Cc1c[nH]c2ccccc12 (stereo not drawn) [2d]
Group: 1
//
Molecule: NCCCNCCCCNCCCNC(=O)C(Cc1c[nH]c2ccccc12)NC(=O)C(N)Cc1c[nH]c2ccccc12 (stereo not drawn) [1a]
Group: -1
//
Molecule: CCCCCCCCCC(=O)NC(Cc1c[nH]c2ccccc12)C(=O)NC(Cc1c[nH]c2ccccc12)C(=O)NCCCNCCCCNCCCN (stereo not drawn) [1d]
Group: 1
//
Molecule: CCCCCCCCCCCC(=O)NCCCN(CCCCN(CCCN)C(=O)C(N)Cc1c[nH]c2ccccc12)C(=O)C(N)Cc1c[nH]c2ccccc12 (stereo not drawn) [2e]
Group: 1
//
Molecule: NCCCNCCCCNCCCNC(=O)C(Cc1c[nH]c2ccccc12)NC(=O)C(Cc1c[nH]c2ccccc12)NC(=O)C=Cc1ccc(O)c(O)c1 (stereo not drawn) [1b]
Group: -1
//
Molecule: CCCCCC=CCC=CCCCCCCCC(=O)NC(Cc1c[nH]c2ccccc12)C(=O)NC(Cc1c[nH]c2ccccc12)C(=O)NCCCNCCCCNCCCN (stereo not drawn) [1f]
Group: 1
//
Molecule: CCCCCC=CCC=CCCCCCCCC(=O)NCCCN(CCCCN(CCCN)C(=O)C(N)Cc1c[nH]c2ccccc12)C(=O)C(N)Cc1c[nH]c2ccccc12 (stereo not drawn) [2f]
Group: 1
//
Molecule: NCCCNCCCCNCCCNC(=O)C(Cc1c[nH]c2ccccc12)NC(=O)C(Cc1c[nH]c2ccccc12)NC(=O)Cc1ccc(C(F)(F)F)cc1 (stereo not drawn) [1c]
Group: 1
//
Molecule: NCCCN(CCCCN(CCCNC(=O)C=Cc1ccc(O)c(O)c1)C(=O)C(N)Cc1c[nH]c2ccccc12)C(=O)C(N)Cc1c[nH]c2ccccc12 (stereo not drawn) [2b]
Group: -1
//
Molecule: CCCCCCCCCCCC(=O)NC(Cc1c[nH]c2ccccc12)C(=O)NC(Cc1c[nH]c2ccccc12)C(=O)NCCCNCCCCNCCCN (stereo not drawn) [1e]
Group: 1
